molecular target: UapA (Aspergillus nidulans, UniProt Q07307, Q408E); construct: full length (574 residues), C-terminal GFP tag (plasmid pAN510exp-GFP) expressed in A. nidulans uapAΔ uapCΔ azgAΔ pabaA1 argB2; homodimer; test: competition of [3H]-xanthine uptake by germinating conidiospores
quantity-name: pKi
Remember, pKi is on a log scale: it is -log10 of the molar concentration.

Kindly state the measured pKi obtained for `O=c1[nH]cnc2nc[nH]c12` with UapA (Aspergillus nidulans, UniProt Q07307, Q408E).
4.15
